Tested on: Escherichia coli
Test: Antimicrobial activity against Escherichia coli ATCC 25922 by broth microdilution method
Assay type: functional
MIC by entry:
QUANTITY KIND: MIC

{"columns": ["COMPOUND", "QUANTITY KIND", "RECORDED VALUE"],
 "data": [
  ["N=C(NC(=O)c1ccoc1)c1ccccc1", "MIC", "320 µg/mL"],
  ["C[C@@H](O)[C@H]1C(=O)N2C(C(=O)O)=C(SCCNC=N)C[C@H]12 [IMIPENEM ANHYDROUS]", "MIC", "0.06 µg/mL"],
  ["O=C(NCc1cccnc1)c1ccoc1", "MIC", "320 µg/mL"],
  ["O=C(Nn1cnnc1)c1ccoc1", "MIC", "160 µg/mL"],
  ["O=C(NNc1c(F)c(F)c(F)c(F)c1F)c1ccoc1", "MIC", "320 µg/mL"],
  ["O=C(NCCC1CCN(Cc2ccccc2)CC1)c1ccoc1", "MIC", "160 µg/mL"],
  ["Cc1ccc(S(=O)(=O)NNC(=O)c2ccoc2)cc1", "MIC", "320 µg/mL"],
  ["CN(C)c1ccc(CNC(=O)c2ccoc2)cc1", "MIC", "160 µg/mL"],
  ["O=C(NCc1ccccn1)c1ccoc1", "MIC", "320 µg/mL"],
  ["O=C(Nc1ccccc1O)c1ccoc1", "MIC", "160 µg/mL"],
  ["O=C(Nc1nc[nH]n1)c1ccoc1", "MIC", "320 µg/mL"],
  ["O=C(NCc1ccncc1)c1ccoc1", "MIC", "320 µg/mL"],
  ["O=C(NNc1ccccc1)c1ccoc1", "MIC", "320 µg/mL"]
]}

---

MBC by entry:
System: Staphylococcus aureus
Assay: Antimicrobial activity against Staphylococcus aureus ATCC 25923 by broth microdilution method
Assay type: functional
Conditions: read-out: MFC
QUANTITY KIND: MBC (µg/mL)

{"columns": ["STRUCTURE NOTATION", "QUANTITY KIND", "RECORDED VALUE"],
 "data": [
  ["O=C(NCCC1CCN(Cc2ccccc2)CC1)c1ccoc1", "MBC", 160],
  ["O=C(Nn1cnnc1)c1ccoc1", "MBC", 320],
  ["CN(C)c1ccc(CNC(=O)c2ccoc2)cc1", "MBC", 80],
  ["O=C(Nc1nc[nH]n1)c1ccoc1", "MBC", 160],
  ["O=C(NCCCO)c1ccoc1", "MBC", 320],
  ["O=C(NCc1ccncc1)c1ccoc1", "MBC", 320],
  ["O=C(Nc1ccccc1O)c1ccoc1", "MBC", 320]
]}

---

Test system: Cryptococcus deneoformans
Assay: Antimicrobial activity against Cryptococcus neoformans var.neoformans serotype D ATCC 28952 by broth microdilution method
Assay type: functional
MFC by entry:

{"columns": ["STRUCTURE NOTATION", "MFC (µg/mL)"],
 "data": [
  ["O=C(NNc1c(F)c(F)c(F)c(F)c1F)c1ccoc1", 320],
  ["Cc1ccc(S(=O)(=O)NNC(=O)c2ccoc2)cc1", 320],
  ["O=C(Nc1nc[nH]n1)c1ccoc1", 80],
  ["N=C(NC(=O)c1ccoc1)c1ccccc1", 320],
  ["O=C(Nc1ccccc1O)c1ccoc1", 20],
  ["O=C(NCc1ccncc1)c1ccoc1", 320],
  ["O=C(NNc1ccccc1)c1ccoc1", 160]
]}
